system: LOX IMVI; settings: read-out: LC50, Melanoma, 48 h
Outcome Measure: CC50 (µM)
// return numeric value only (unit: µM, not printed)

stdin: // query CC50 value for entry CC(=O)C=CSc1nc(N)nc2nc[nH]c12 [trans-AVTG, 6-(2-acetylvinylthio) guanine]
stdout: 82.5

====

system: ACHN; settings: read-out: LC50, Renal, 48 h
Outcome Measure: CC50

stdin: # input compound: CC(=O)C=CSc1nc(N)nc2nc[nH]c12 [trans-AVTG, 6-(2-acetylvinylthio) guanine] ; wanted: its CC50
stdout: > 100 µM

====

Outcome Measure: median TGI (µM)
// note: answer is a bare numeric in µM

stdin: GET /values?readout=median TGI&system=CNS cell lines&item= CC(=O)C=CSc1ncnc2nc[nH]c12 [cis-AVTP, 6-(2-acetylvinylthio) purine]
stdout: 10.7

stdin: Please tell me: median TGI of CC(=O)C=CSc1nc(N)nc2nc[nH]c12 [trans-AVTG, 6-(2-acetylvinylthio) guanine] , system CNS cell lines?
stdout: 32.4

====

test system: SK-MEL-2; conditions: read-out: LC50; SK-MEL-2, Melanoma, 48 h
Outcome Measure: CC50

stdin: Need CC50 of CC(=O)C=CSc1nc(N)nc2nc[nH]c12 [trans-AVTG, 6-(2-acetylvinylthio) guanine] , thanks.
stdout: 98.7 µM

====

system: OVCAR-8; conditions: read-out: LC50; OVCAR-8, Ovarian, 48 h
Outcome Measure: CC50

stdin: Fill blank: measured CC50 of the compound CC(=O)C=CSc1nc(N)nc2nc[nH]c12 [trans-AVTG, 6-(2-acetylvinylthio) guanine] is ____.
stdout: > 100 µM

====

test system: NCI-H522; settings: read-out: LC50; NCI-H522, Non-Small Cell Lung, 48 h
Outcome Measure: CC50

stdin: API: value(readout= CC50, system= NCI-H522, query= CC(=O)C=CSc1nc(N)nc2nc[nH]c12 [trans-AVTG, 6-(2-acetylvinylthio) guanine] )
stdout: 8.28 µM

====

system: HCT-116; settings: read-out: LC50; HCT-116, Colon, 48 h
Outcome Measure: CC50 (µM)
Reply with just the number (in µM).

stdin: What value of CC50 has been reported for the following compound? CC(=O)C=CSc1nc(N)nc2nc[nH]c12 [trans-AVTG, 6-(2-acetylvinylthio) guanine]
stdout: 14.7

====

test system: SK-OV-3; details: read-out: LC50; SK-OV-3, Ovarian, 48 h
Outcome Measure: CC50

stdin: Item: CC(=O)C=CSc1nc(N)nc2nc[nH]c12 [trans-AVTG, 6-(2-acetylvinylthio) guanine] Test system: SK-OV-3 Read-out: CC50 Value: ?
stdout: > 100 µM

====

test system: SF-295; conditions: read-out: LC50; SF-295, CNS, 48 h
Outcome Measure: CC50 (µM)
Give the quantity in µM, number only.

stdin: Need CC50 of CC(=O)C=CSc1nc(N)nc2nc[nH]c12 [trans-AVTG, 6-(2-acetylvinylthio) guanine] , thanks.
stdout: 82.9

====

system: OVCAR-5; details: read-out: LC50; OVCAR-5, Ovarian, 48 h
Outcome Measure: CC50
Number first, unit second: that is the form wanted.

stdin: Which measured CC50 value corresponds to CC(=O)C=CSc1nc(N)nc2nc[nH]c12 [trans-AVTG, 6-(2-acetylvinylthio) guanine] ?
stdout: 57.7 µM
